RUN CONDITIONS: in 1,2-dichloroethane, 303.15 K
RECORDED METRIC: solubility (mole fraction)
Give the value as a plain number.

The value of solubility (mole fraction) measured for the compound Cc1ccc(NC(=O)/C(=C/Cl)Sc2ccccc2)cc1 turned out to be 0.0942

----------
RUN CONDITIONS: in methyl acetate, 283.15 K
RECORDED METRIC: solubility (mole fraction)

The value of solubility (mole fraction) measured for the compound Cc1ccc(NC(=O)/C(=C/Cl)Sc2ccccc2)cc1 turned out to be 0.0195

----------
RUN CONDITIONS: in 2-butanone, 318.15 K
RECORDED METRIC: solubility (mole fraction)
Give the value as a plain number.

The value of solubility (mole fraction) measured for the molecule Cc1ccc(NC(=O)/C(=C/Cl)Sc2ccccc2)cc1 turned out to be 0.135

----------
RUN CONDITIONS: in isopropanol, 313.15 K
RECORDED METRIC: solubility (mole fraction)
Give the value as a plain number.

The value of solubility (mole fraction) measured for the molecule Cc1ccc(NC(=O)/C(=C/Cl)Sc2ccccc2)cc1 turned out to be 0.0075

----------
RUN CONDITIONS: in THF, 293.15 K
RECORDED METRIC: solubility (mole fraction)

The value of solubility (mole fraction) measured for the molecule Cc1ccc(NC(=O)/C(=C/Cl)Sc2ccccc2)cc1 turned out to be 0.118

----------
RUN CONDITIONS: in THF, 313.15 K
RECORDED METRIC: solubility (mole fraction)

The value of solubility (mole fraction) measured for the molecule Cc1ccc(NC(=O)/C(=C/Cl)Sc2ccccc2)cc1 turned out to be 0.195

----------
RUN CONDITIONS: in MTBE, 303.15 K
RECORDED METRIC: solubility (mole fraction)
Give the value as a plain number.

The value of solubility (mole fraction) measured for the molecule Cc1ccc(NC(=O)/C(=C/Cl)Sc2ccccc2)cc1 turned out to be 0.0153

----------
RUN CONDITIONS: in tert-amyl alcohol, 303.15 K
RECORDED METRIC: solubility (mole fraction)
Give the value as a plain number.

The value of solubility (mole fraction) measured for the compound Cc1ccc(NC(=O)/C(=C/Cl)Sc2ccccc2)cc1 turned out to be 0.005

----------
RUN CONDITIONS: in isopropanol, 303.15 K
RECORDED METRIC: solubility (mole fraction)

The value of solubility (mole fraction) measured for the compound Cc1ccc(NC(=O)/C(=C/Cl)Sc2ccccc2)cc1 turned out to be 0.0048

----------
RUN CONDITIONS: in 1,2-dichloroethane, 318.15 K
RECORDED METRIC: solubility (mole fraction)
Give the value as a plain number.

The value of solubility (mole fraction) measured for the compound Cc1ccc(NC(=O)/C(=C/Cl)Sc2ccccc2)cc1 turned out to be 0.161

----------
RUN CONDITIONS: in toluene, 288.15 K
RECORDED METRIC: solubility (mole fraction)
Give the value as a plain number.

The value of solubility (mole fraction) measured for the compound Cc1ccc(NC(=O)/C(=C/Cl)Sc2ccccc2)cc1 turned out to be 0.0202

----------
RUN CONDITIONS: in MTBE, 288.15 K
RECORDED METRIC: solubility (mole fraction)
Give the value as a plain number.

The value of solubility (mole fraction) measured for the molecule Cc1ccc(NC(=O)/C(=C/Cl)Sc2ccccc2)cc1 turned out to be 0.0092

----------
RUN CONDITIONS: in ethyl acetate, 283.15 K
RECORDED METRIC: solubility (mole fraction)
Give the value as a plain number.

The value of solubility (mole fraction) measured for the compound Cc1ccc(NC(=O)/C(=C/Cl)Sc2ccccc2)cc1 turned out to be 0.0233

----------
RUN CONDITIONS: in isopropanol, 283.15 K
RECORDED METRIC: solubility (mole fraction)
Give the value as a plain number.

The value of solubility (mole fraction) measured for the compound Cc1ccc(NC(=O)/C(=C/Cl)Sc2ccccc2)cc1 turned out to be 0.0021

----------
RUN CONDITIONS: in MTBE, 283.15 K
RECORDED METRIC: solubility (mole fraction)
Give the value as a plain number.

The value of solubility (mole fraction) measured for the compound Cc1ccc(NC(=O)/C(=C/Cl)Sc2ccccc2)cc1 turned out to be 0.0075

----------
RUN CONDITIONS: in 1,2-dichloroethane, 298.15 K
RECORDED METRIC: solubility (mole fraction)
Give the value as a plain number.

The value of solubility (mole fraction) measured for the compound Cc1ccc(NC(=O)/C(=C/Cl)Sc2ccccc2)cc1 turned out to be 0.0773

----------
RUN CONDITIONS: in 2-methyltetrahydrofuran, 283.15 K
RECORDED METRIC: solubility (mole fraction)
Give the value as a plain number.

The value of solubility (mole fraction) measured for the compound Cc1ccc(NC(=O)/C(=C/Cl)Sc2ccccc2)cc1 turned out to be 0.0466

----------
RUN CONDITIONS: in 2-butanone, 313.15 K
RECORDED METRIC: solubility (mole fraction)

The value of solubility (mole fraction) measured for the compound Cc1ccc(NC(=O)/C(=C/Cl)Sc2ccccc2)cc1 turned out to be 0.112

----------
RUN CONDITIONS: in 2-methyltetrahydrofuran, 293.15 K
RECORDED METRIC: solubility (mole fraction)
Give the value as a plain number.

The value of solubility (mole fraction) measured for the compound Cc1ccc(NC(=O)/C(=C/Cl)Sc2ccccc2)cc1 turned out to be 0.0604

----------
RUN CONDITIONS: in acetone, 308.15 K
RECORDED METRIC: solubility (mole fraction)
Give the value as a plain number.

The value of solubility (mole fraction) measured for the compound Cc1ccc(NC(=O)/C(=C/Cl)Sc2ccccc2)cc1 turned out to be 0.0707

----------
RUN CONDITIONS: in THF, 278.15 K
RECORDED METRIC: solubility (mole fraction)
Give the value as a plain number.

The value of solubility (mole fraction) measured for the compound Cc1ccc(NC(=O)/C(=C/Cl)Sc2ccccc2)cc1 turned out to be 0.0849

----------
RUN CONDITIONS: in 2-methyltetrahydrofuran, 298.15 K
RECORDED METRIC: solubility (mole fraction)
Give the value as a plain number.

The value of solubility (mole fraction) measured for the compound Cc1ccc(NC(=O)/C(=C/Cl)Sc2ccccc2)cc1 turned out to be 0.0702

----------
RUN CONDITIONS: in isopropanol, 288.15 K
RECORDED METRIC: solubility (mole fraction)
Give the value as a plain number.

The value of solubility (mole fraction) measured for the compound Cc1ccc(NC(=O)/C(=C/Cl)Sc2ccccc2)cc1 turned out to be 0.0025

----------
RUN CONDITIONS: in tert-amyl alcohol, 288.15 K
RECORDED METRIC: solubility (mole fraction)
Give the value as a plain number.

The value of solubility (mole fraction) measured for the compound Cc1ccc(NC(=O)/C(=C/Cl)Sc2ccccc2)cc1 turned out to be 0.0018

----------
RUN CONDITIONS: in 2-butanone, 278.15 K
RECORDED METRIC: solubility (mole fraction)
Give the value as a plain number.

The value of solubility (mole fraction) measured for the molecule Cc1ccc(NC(=O)/C(=C/Cl)Sc2ccccc2)cc1 turned out to be 0.0308

----------
RUN CONDITIONS: in 2-butanone, 288.15 K
RECORDED METRIC: solubility (mole fraction)
Give the value as a plain number.

The value of solubility (mole fraction) measured for the compound Cc1ccc(NC(=O)/C(=C/Cl)Sc2ccccc2)cc1 turned out to be 0.0436

----------
RUN CONDITIONS: in THF, 283.15 K
RECORDED METRIC: solubility (mole fraction)
Give the value as a plain number.

The value of solubility (mole fraction) measured for the molecule Cc1ccc(NC(=O)/C(=C/Cl)Sc2ccccc2)cc1 turned out to be 0.0953

----------
RUN CONDITIONS: in 2-butanone, 293.15 K
RECORDED METRIC: solubility (mole fraction)

The value of solubility (mole fraction) measured for the compound Cc1ccc(NC(=O)/C(=C/Cl)Sc2ccccc2)cc1 turned out to be 0.0529

----------
RUN CONDITIONS: in MTBE, 308.15 K
RECORDED METRIC: solubility (mole fraction)
Give the value as a plain number.

The value of solubility (mole fraction) measured for the molecule Cc1ccc(NC(=O)/C(=C/Cl)Sc2ccccc2)cc1 turned out to be 0.0187

----------
RUN CONDITIONS: in THF, 288.15 K
RECORDED METRIC: solubility (mole fraction)
Give the value as a plain number.

The value of solubility (mole fraction) measured for the molecule Cc1ccc(NC(=O)/C(=C/Cl)Sc2ccccc2)cc1 turned out to be 0.105

----------
RUN CONDITIONS: in ethyl acetate, 303.15 K
RECORDED METRIC: solubility (mole fraction)
Give the value as a plain number.

The value of solubility (mole fraction) measured for the molecule Cc1ccc(NC(=O)/C(=C/Cl)Sc2ccccc2)cc1 turned out to be 0.0522
